Target chain: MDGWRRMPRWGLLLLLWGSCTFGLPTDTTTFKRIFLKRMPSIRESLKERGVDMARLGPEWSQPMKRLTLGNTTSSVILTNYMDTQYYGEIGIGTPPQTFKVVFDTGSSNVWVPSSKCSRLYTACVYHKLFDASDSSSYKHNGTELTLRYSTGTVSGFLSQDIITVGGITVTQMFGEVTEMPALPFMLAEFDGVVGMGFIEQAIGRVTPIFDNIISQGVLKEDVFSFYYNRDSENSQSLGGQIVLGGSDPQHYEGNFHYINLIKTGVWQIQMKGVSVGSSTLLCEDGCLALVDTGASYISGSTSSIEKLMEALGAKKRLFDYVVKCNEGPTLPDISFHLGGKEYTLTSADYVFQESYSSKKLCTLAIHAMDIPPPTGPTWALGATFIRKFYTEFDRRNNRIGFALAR
pIC50: −log10 of the molar value.
Collected from the literature: pIC50 of various compounds toward the protein given by its sequence.
observation-type: pIC50

Take a look at these entries with their results.
>>> test_result("CC(C)[C@H](C[C@H](O)[C@@H](N)CN1CC(=O)N(c2cc(F)ccc2Cl)CC1(C)C)C(=O)NCC(C)(C)C(N)=O")
8.68
>>> test_result("CCCCNC(=O)[C@@H](C)C[C@@H](O)[C@@H](CC1CCCCC1)NC(=O)[C@H](CCCC)OP(=O)(O)CCCCc1ccccc1")
6.44

I: Cc1c(F)cccc1Cc1cc2c(cc1O)c(C(=O)N1CCNCC1)c(Cc1cccc(F)c1C)n2-c1ccccc1
II: CCOC[C@@H](CC(C)C)NC(=O)[C@@H]1CNC[C@H](C(=O)N(c2cc(OCC)c(CC)cn2)C2CC2)C1
Problem: Response body: label of entry with the larger pIC50; valid values I , II . I would appreciate it if you answered with the label of your choice.
Result: II
(II: 9.22, I: 6.37)
